Provenance of the data: PubChem BioAssay (NCI)

Assignment: determine reported TGI for the given compounds.
test system: BT-549 breast; assay: NCI tumour cell line growth inhibition, 48 h
The response must be a number in µM with no trailing unit.

Report measured TGI; entry is CC(C)CC1c2[nH]c3ccccc3c2C[C@H]2C(=O)NC(COC(C)(C)C)C(=O)N12 (stereo not given in full)
60.9

Report measured TGI; entry is CCCCCCN(CCCCCC)CC(O)c1cccc2ccc(Cl)cc12 (stereo not given)
28

Report measured TGI; entry is CCCCCCCCCCCCCCCCCC1=NC(C)(C)CN1CCO
48

Report measured TGI; entry is COc1cc(C2c3cc4c(cc3[C@@H](Nc3cccc(O)c3)C3COC(=O)[C@H]23)OCO4)cc(OC)c1O (stereo not given in full)
6.7

Report measured TGI; entry is C=C1c2nc3ccccc3n2C=C(c2ccccc2)N1c1ccc(OC)cc1
38.3

Report measured TGI; entry is CCCCCCCCCCCCNC(=O)[C@H]1CSC(c2ccc(OC)c(F)c2)N1 (stereo not given in full)
0.912

###

system: HCT-15 colon; experiment: NCI tumour cell line growth inhibition, 48 h; in the data active = GI50 below about 0.43 µM; inactive = the rest
The categories you may choose from are 1 (yes) (active), 0 (no) (inactive)

Short answer needed: outcome of this test for Cn1c(COC(=O)NCCN2CCOCC2)nc2c(N3CCOCC3)nc(-c3ccccc3)nc21 ?
0 (no)

Short answer needed: outcome of this test for OCCCCC#Cc1ccccc1C#Cc1cnccn1 ?
0 (no)

Short answer needed: outcome of this test for O=C(CN=Cc1cccs1)CSC(c1ccccc1)c1ccccc1 ?
0 (no)

Short answer needed: outcome of this test for Cc1cc2c(cc1Cl)SC1=NN(C)C(c3ccccc3O)N1S2(=O)=O (stereo not drawn) ?
0 (no)

Short answer needed: outcome of this test for CC(=O)Nc1ccc(-n2cnc3cc(-c4ccc(OCCN5CCCCC5)cc4)ccc32)cc1 ?
0 (no)

Short answer needed: outcome of this test for CC1(C)CC2(C)OC2C2(C1)N=NC(=Nc1ccccc1)O2 (stereo not drawn) ?
0 (no)

Short answer needed: outcome of this test for CC[C@@]1(O)C(=O)OCc2c1cc1n(c2=O)Cc2cc3c(NC(C)=O)c(O)ccc3nc2-1 ?
0 (no)

Short answer needed: outcome of this test for COc1cc(C(=O)/C=C/c2c(C(F)(F)F)nc3sccn23)cc(OC)c1OC ?
0 (no)

Short answer needed: outcome of this test for Nc1ccc2c(c1)CN1C(=O)c3ccccc3C1=N2 ?
0 (no)

Short answer needed: outcome of this test for C=C(CC1(CC(=C)c2ccc(C(=O)O)cc2)C(=O)N(C)C(=O)N(C)C1=O)c1ccc(C(=O)O)cc1 ?
0 (no)

Short answer needed: outcome of this test for O=c1[nH]c2cc(O)ccc2n2cc3c(F)cccc3c12 ?
0 (no)

Short answer needed: outcome of this test for CC[C@@]1(OC(=O)CN(C)C)C(=O)OCc2c1cc1n(c2=O)Cc2cc3ccccc3nc2-1 ?
1 (yes)

Short answer needed: outcome of this test for O=[N+]([O-])c1cccc(-c2ncc(-c3ccc(Cl)cc3Cl)[nH]2)c1 ?
0 (no)

###

test system: NCI-H460 lung; experiment: NCI tumour cell line growth inhibition, 48 h
measured_quantity: TGI

Report measured TGI; entry is Nc1ncnc2c1ncn2Cc1ccc(C23CC4CC(CC(C4)C2)C3)c(O)c1
> 100 µM

Report measured TGI; entry is O=C(OCc1nc2ccc(Br)cc2c(=O)n1-c1ccccc1)c1ccccc1O
> 100 µM

Report measured TGI; entry is CCCCCCN(CCCCCC)CC(O)c1cccc2ccc(Cl)cc12 (stereo unspecified)
19.6 µM

Report measured TGI; entry is NC(CO)c1ccccc1 (stereo unspecified)
> 100 µM

Report measured TGI; entry is CSC1(SC)CCCCCCCCCCC1
> 100 µM

Report measured TGI; entry is Cc1nn(C(=O)c2ccccc2O)c2c1C(c1ccc(O)cc1)SC(N)=N2 (stereo unspecified)
> 10 µM

Report measured TGI; entry is COC(=O)C1=C(O)C(C(=O)OC)[C@@]2(O)[C@@H](C(=O)OC)C(c3ccc(OC(=O)C(CC(C)C)NC(C)=O)cc3)C[C@@H]1[C@@H]2C(=O)OC (stereo partly specified)
> 100 µM

Report measured TGI; entry is CC(C)[Si]1(C(C)C)OCC2OC(n3cnc4c(N)ncnc43)C(N)C2O[Si](C(C)C)(C(C)C)O1 (stereo unspecified)
27.5 µM

Report measured TGI; entry is CCOC(=O)Cc1nc2c(=O)[nH]cnc2n1C1OC(COC(C)=O)C(OC(C)=O)C1OC(C)=O (stereo unspecified)
> 100 µM

Report measured TGI; entry is CCCCCCCCC(=O)NCCCNCCCNC(=O)CCCCCCCC
6.57 µM

Report measured TGI; entry is COc1ccccc1NC(=O)C(=O)C1C(=O)Nc2ccccc2S1=O (stereo unspecified)
> 100 µM

Report measured TGI; entry is C#Cc1ccc(-n2c(/C=C/c3cc(OC)c(OC)c(OC)c3)nc3ncccc3c2=O)cc1
25.3 µM

Report measured TGI; entry is CCc1nc(N)nc(N)c1-c1ccc([N+](=O)[O-])c(Cl)c1
> 100 µM

Report measured TGI; entry is CC(C)(C)c1ccc(S(=O)(=O)N[C@H]2CC[C@H]3[C@@H]4CCc5cc(O)ccc5[C@H]4CC[C@]23C)cc1
4.16 µM

Report measured TGI; entry is COC(=O)CNC(=O)/C=C/[C@H](O[Si](C)(C)C(C)(C)C)[C@H](/C=C/C(=O)NCC(=O)OC)O[Si](C)(C)C(C)(C)C
> 25 µM

Report measured TGI; entry is Clc1ncc(C(Cl)(Cl)Cl)nc1-c1ccccc1
11.3 µM

Report measured TGI; entry is CC(=O)Oc1ccc2c(c1)c1c(OC(C)=O)c3ccccc3c(OC(C)=O)c1n2Cc1cccc(C)c1
> 100 µM

Report measured TGI; entry is CC(=O)OCC1OC(n2c3c(c(-c4ccco4)c(C#N)c2=S)CCCC3)C(OC(C)=O)C(OC(C)=O)C1OC(C)=O (stereo unspecified)
> 31.6 µM

Report measured TGI; entry is O=C(NCCCCl)c1c(O)c2ccccc2[nH]c1=O
> 100 µM

Report measured TGI; entry is COc1cc2c(cc1OC)C1Cc3ccccc3CN1CCC2 (stereo unspecified)
> 100 µM

Report measured TGI; entry is C=C(CCC(C(=O)O)C1CCC2(C)C3=C(CCC12C)C1(C)CCC(O)C(C)(C)C1CC3)C(C)C (stereo unspecified)
37.5 µM

Report measured TGI; entry is COc1cc(CC(=O)c2ccc3c(c2)OCO3)cc(OC)c1OC
> 100 µM

Report measured TGI; entry is CC(C)C[C@H](NC(=O)[C@@H](O)[C@H](N)Cc1ccccc1)C(=O)O
> 100 µM

Report measured TGI; entry is CCCCC(=C=C1CCCCC1O)C1CCCN1C(=O)OC(C)(C)C (stereo unspecified)
31 µM

Report measured TGI; entry is COc1cc2cc3c4c(cc(OC)c(OC)c4c2cc1OC)CCN3C(=O)OCCBr
> 100 µM

Report measured TGI; entry is CCOc1cccnc1/C=N/NC(N)=S
> 100 µM

Report measured TGI; entry is CC(C)(C)NCCC(O)c1cc(C(F)(F)F)nc2c(C(F)(F)F)cccc12 (stereo unspecified)
16.8 µM

Report measured TGI; entry is CCOc1cc(C=O)ccc1O
> 100 µM

Report measured TGI; entry is C=C(C)[C@]12CC(C)C34OC(/C=C\C=C\CCCCCCCCC)(O[C@@H]1[C@@H]3[C@@H]1O[C@]1(CO)[C@@H](O)[C@]1(O)C(=O)C(C)=C[C@@H]41)O2 (stereo partly specified)
16 µM

Report measured TGI; entry is COc1cc(C2c3cc4c(cc3[C@@H](Nc3cccc(O)c3)C3COC(=O)[C@H]23)OCO4)cc(OC)c1O (stereo partly specified)
3.55 µM

Report measured TGI; entry is C=CC1(CCC(Br)C(C)(C)Cl)CO1 (stereo unspecified)
> 10 µM

Report measured TGI; entry is C=C(CC1(CC(=C)c2ccc(C(=O)O)cc2)C(=O)N(C)C(=O)N(C)C1=O)c1ccc(C(=O)O)cc1
> 100 µM

Report measured TGI; entry is O=C(CC(C(=O)O)N1CCOCC1)c1ccccc1 (stereo unspecified)
42.1 µM

Report measured TGI; entry is CC(=O)Nc1ccc(C(=O)N2N=C(C)/C(=C/c3cccc(O)c3)C2=O)cc1
> 100 µM

Report measured TGI; entry is CC(=O)Nc1ncc2c(n1)-c1ccccc1OC2
> 100 µM

Report measured TGI; entry is COc1cc2c(c(OC)c1OC)-c1ccc(SC)c(=O)cc1[C@@H](NC(=O)c1ccc(C#N)cc1)CC2
< 0.01 µM

Report measured TGI; entry is COc1cc(O)c2c(c1)C(O)C(O)CC1OC1C(=O)/C=C/CC(C)OC2=O (stereo unspecified)
25.6 µM

Report measured TGI; entry is COc1ccc(NC(=O)C2=C(SC)C(=O)N=C2N)cc1
> 100 µM

Report measured TGI; entry is Cc1csc(Nc2nc(-c3cccc(Cl)c3)nc(C(Cl)(Cl)Cl)n2)n1
5.42 µM

Report measured TGI; entry is Cc1ns/c(=N\C(=S)N(C)C)n1C
> 100 µM

Report measured TGI; entry is COC(=O)C(Cc1ccccc1)NC(=O)CCCNC(=O)OCc1ccccc1 (stereo unspecified)
> 100 µM
